Values were extracted from PubChem BioAssay (NCI).

Test system: HOP-92 NSCLC
RUN_DESCRIPTION: NCI-60 one-dose screen, 48 h
CONDITION_SUMMARY: 10 µM unless noted
The panel holds about 83,000 compounds, 20% with a hit somewhere; the sample as a whole holds those more often. The source made the active and inactive calls. Rule for the calls: active = growth percent below 10; inactive = the rest.
Your reply should match one of these outcome classes. active, inactive

Example entries and their recorded answers appear below.
- MOLECULE: "C#CCOc1cc(N(CC)CC)ccc1C(C(=O)NC(C)(C)C)N(C(=O)C1CCc2cc(F)ccc2O1)c1ccccc1Br (stereo not drawn)"
  MEASURED_ON: "HOP-92 NSCLC"
  ASSIGNED_CATEGORY: "inactive"
- MOLECULE: "CNC(=O)c1cc(Oc2ccc3nc(NC(=O)Nc4cccc(OC(F)(F)F)c4)sc3c2)ccn1"
  MEASURED_ON: "HOP-92 NSCLC"
  ASSIGNED_CATEGORY: "active"

Please find the next molecule below.
**Query** Dear colleague, could you share the recorded outcome for `COc1ccc2c(c1)c(-c1cc(N)n3nc(-c4cn(C)c5ccccc45)cc3n1)cn2C` when you have a moment?
**Result** active
